biological target: human recombinant PTP1B (Homo sapiens); assay: Kinetic analysis of PTP1B inhibition (Lineweaver-Burk plot); assay type: biochemical; conditions: pNPP as substrate; read-out: PTP1B Ki (apparent dissociation constant)
Sequence (P18031 whole entry): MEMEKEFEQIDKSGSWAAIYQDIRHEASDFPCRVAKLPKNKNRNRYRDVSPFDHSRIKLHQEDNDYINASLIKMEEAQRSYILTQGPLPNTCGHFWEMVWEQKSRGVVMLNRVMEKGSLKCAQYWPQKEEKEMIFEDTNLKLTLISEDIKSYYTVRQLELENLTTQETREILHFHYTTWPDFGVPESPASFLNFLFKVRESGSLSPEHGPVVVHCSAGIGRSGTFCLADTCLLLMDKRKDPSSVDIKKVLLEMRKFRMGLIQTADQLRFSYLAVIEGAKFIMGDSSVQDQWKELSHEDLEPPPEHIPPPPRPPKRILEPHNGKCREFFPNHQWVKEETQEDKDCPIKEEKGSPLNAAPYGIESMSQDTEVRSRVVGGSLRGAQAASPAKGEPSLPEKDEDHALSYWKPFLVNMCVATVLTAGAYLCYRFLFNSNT
pKi: −log10 of the molar value.
reportedEndpoint: pKi

| compound | pKi |
| --- | --- |
| O=C(O)CCN1C(=O)/C(=C/c2cccc(Oc3ccccc3)c2)SC1=S [4a] | 4.97 |

1: O=C(O)CCN1C(=O)/C(=C/c2cccc(OCCc3ccccc3)c2)SC1=S [4e]
2: O=C(O)CCN1C(=O)/C(=C/c2ccc(OCCc3ccccc3)cc2)SC1=S [4f]
Sorting by pKi in descending order, would 1 or 2 appear first? Returns: label corresponding to the selected item.
2
(2: 6.05, 1: 5.66)

---

target: human recombinant PTP1B (Homo sapiens); test: Inhibition of human recombinant PTP1B, p-nitrophenyl phosphate as substrate; type: biochemical; conditions: at 50 µM; residual activity, pNPP as substrate; read-out: PTP1B % enzyme residual activity at the indicated concentration
reportedEndpoint: remaining activity at 50 µM (%)

In the examples that follow, each entry is paired with its recorded remaining activity at 50 µM.
| compound | reportedEndpoint | unitAbbrev | result |
| --- | --- | --- | --- |
| O=C(O)CCN1C(=O)S/C(=C\c2ccc(Oc3ccccc3)cc2)C1=O [3b] | remaining activity at 50 µM | % | 56 |
| O=C(O)CCN1C(=O)S/C(=C\c2cccc(Oc3ccccc3)c2)C1=O [3a] | remaining activity at 50 µM | % | 79 |
| O=C(O)CCN1C(=O)S/C(=C\c2cccc(OCCc3ccccc3)c2)C1=O [3e] | remaining activity at 50 µM | % | 64 |

P: O=C(O)CCN1C(=O)S/C(=C\c2ccc(OCc3ccccc3)cc2)C1=O [3d]
Q: O=C(O)CCN1C(=O)S/C(=C\c2ccc(OCCc3ccccc3)cc2)C1=O [3f]
Return label of the item with the larger remaining activity at 50 µM. Candidates: P , Q . // output: label of the selected item
P

---

As shown below, each of these molecules has a reported melting point value.

Some molecules with known melting point results, for comparison:
| structureSmiles | result |
| --- | --- |
| O=C(O)CCN1C(=O)S/C(=C\c2cccc(OCCc3ccccc3)c2)C1=O | 130 to 133 °C |
| O=C(O)C=CCN1C(=O)SC(=Cc2cccc3ccccc23)C1=O | 170 to 172 °C |
| O=C(O)CCN1C(=O)/C(=C/c2cccc(OCCc3ccccc3)c2)SC1=S | 136 to 138 °C |
| O=C(O)CCN1C(=O)S/C(=C\c2ccc(OCCc3ccccc3)cc2)C1=O | 160 to 163 °C |
| O=C(O)CCN1C(=O)/C(=C/c2ccc(Oc3ccccc3)cc2)SC1=S | 218 to 219 °C |
| O=C(O)CCN1C(=O)S/C(=C\c2ccc(Oc3ccccc3)cc2)C1=O | 198 to 202 °C |
| O=C(O)CCN1C(=O)S/C(=C\c2ccc(OCc3ccccc3)cc2)C1=O | 195 to 199 °C |
| O=C(O)CCN1C(=O)/C(=C/c2ccc(OCc3ccccc3)cc2)SC1=S | 170 to 173 °C |

Quick one: give measured melting point for "O=C(O)C=CCN1C(=O)SC(=Cc2ccc3ccccc3c2)C1=O"
235 to 238 °C

Indicate the recorded melting point value for this molecule: "O=C(O)CCN1C(=O)S/C(=C\c2cccc(OCc3ccccc3)c2)C1=O"
142 to 145 °C

Output measured melting point for this item: "O=C(O)CCN1C(=O)S/C(=C\c2cccc(Oc3ccccc3)c2)C1=O"
177 to 180 °C
